Biological target: T1, hPRLR.mFc (soluble dimeric human PRLR) (human)
T1 construct: dimeric PRLR construct
T1 chain: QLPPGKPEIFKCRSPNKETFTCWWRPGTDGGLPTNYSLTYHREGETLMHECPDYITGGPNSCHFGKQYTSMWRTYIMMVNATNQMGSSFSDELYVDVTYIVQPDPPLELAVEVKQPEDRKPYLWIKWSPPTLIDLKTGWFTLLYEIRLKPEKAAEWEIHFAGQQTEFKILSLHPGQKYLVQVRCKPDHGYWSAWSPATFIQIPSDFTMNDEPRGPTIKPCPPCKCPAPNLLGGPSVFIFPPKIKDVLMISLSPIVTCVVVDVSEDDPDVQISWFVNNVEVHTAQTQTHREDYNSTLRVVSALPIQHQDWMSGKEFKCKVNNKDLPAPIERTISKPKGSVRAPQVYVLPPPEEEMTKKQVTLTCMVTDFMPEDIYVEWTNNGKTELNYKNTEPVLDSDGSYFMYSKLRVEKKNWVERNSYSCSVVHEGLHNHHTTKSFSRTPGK
Assay: SPR Biacore, 25 C, mAb capture
For each record, check the reported Kd: if it is below 0.07 nM write true, else write false.

// query I'd appreciate it if you could check whether H1H6976N (antibody, human IgG1, V domains shown, Tested with human IgG1 Fc (H1H); also called H2M6976N) VH: EVQLLESGGGFVQPGGSLRLSCAASGFTFSSYAMSWVRQAPGKGLEWVSIISSNGRYTYYADSVKGRFTISRDNSKNTLYLQMNSLRAEDTAVYYCATVTGDWFDPWGQGTLVTVSS VL: DIQLTQSPSFLSASVGDRVTITCWASQDIDISLAWYQQKPGKAPKLLIYAASTLQSGVPSKFSGSGSGTDFTLTISSLQPEDFSTYYCQQLNSYPITFGQGTRLDIK has Kd smaller than 0.07 nM.
// result false

// query Determine whether this binder shows Kd lower than 0.07 nM (ties excluded): H1H6804P (antibody, human IgG1, V domains shown, Human IgG1 Fc (H1H)) VH: QVTLKESGPVLVKPTQTLSLTCTVSGFSLSDAGMGVSWIRQPPGKALEWLAHIFSNDGKSYSTSLKSRLTISKDTSKRQVVLTMTNMDPVDTATYYCARIRTGTYSLYLDYWGQGTLVTVSS VL: DIQMTQSPSSLSASVGDRVTITCRASQSINSYLNWYQQKPGKAPKLLLYFASSLQSGVPSRFSGSGSGTDFTLTISSLQPEDFASYYCQESYSTPWTFGQGTKVEIK
// result false

// query In the record for H1H6953N (antibody, human IgG1, V domains shown, Tested with human IgG1 Fc (H1H); also called H1M6953N) VH: EVQLLESGGGLVQPGGTLRLSCAASGFTFSAYAMSWVRQAPGKGLEWVSSINVRAGDTYYADSVKGRFTISRDNSKNTLFLLMNSLRAEDTAAYYCAKARYSSNWGFDFWGQGTLVTVSS VL: DIVMTQSPDSLTVSLGARTTINCQSSQTILHSSNNHNYLAWYQQKPGLPPKLLIYWSSTRESGVPDRFSGSGSGTDFTLTISSLQAEDVAIYYCQQYSNTPYTFGQGTKLEIN , is Kd less than 0.07 nM?
// result true

// query Consider H1H6967N (antibody, human IgG1, V domains shown, Tested with human IgG1 Fc (H1H); also called H2M6967N) VH: EVQLVESGGDLVHPGRSLRLSCAASGFPFDEYAMHWVRQVPGKGLEWVSGISWSNNNIGYADSVKGRFTISRDNAKNSLYLQMNSLRPEDTAFYYCAKSGIFDSWGQGTLVTVSS VL: EIVMTQSPATLSVSPGERATLSCRASQSVSRDLAWYQQKPGQAPRLLIHGASTRATGIPARFSGSGSGAEFTLIISSLQSEDFAVYYCQQYNNWPLTFGGGTKVEIK . Does its Kd lie strictly below 0.07 nM?
// result false
